// provenance: paper PMC6001238

Test system: S. aureus VISA/HIP5827
PROTOCOL DETAILS: MIC, broth microdilution, vancomycin-intermediate S. aureus VISA HIP5827
Assay type: cell-based, Staphylococcus aureus
APPLIED CONDITIONS: Staphylococcus aureus VISA/HIP5827; read-out: MIC
TEST READOUT: MIC (µM)
Write the value in µM as a bare number.

COMPOUND: CN[C@H](CC(C)C)C(=O)N[C@H]1C(=O)N[C@@H](CC(N)=O)C(=O)N[C@H]2C(=O)N[C@H]3C(=O)N[C@H](C(=O)N[C@H](C(=O)NCC(=O)Nc4ccc(Cl)cc4)c4cc(O)cc(O)c4-c4cc3ccc4O)[C@H](O)c3ccc(c(Cl)c3)Oc3cc2cc(c3O[C@@H]2O[C@H](CO)[C@@H](O)[C@H](O)[C@H]2O[C@H]2C[C@](C)(N)[C@H](O)[C@H](C)O2)Oc2ccc(cc2Cl)[C@H]1O
TARGET DESC: S. aureus VISA/HIP5827
VALUE MEASURED: 0.39

Missing value: MIC, S. aureus VISA/HIP5827, entry CCCCCCCC[N+](C)(C)CCCNC(=O)c1ccc(NC(=O)CNC(=O)C2NC(=O)C3NC(=O)C(NC(=O)C4NC(=O)C(CC(N)=O)NC(=O)C(NC(=O)C(CC(C)C)NC)C(O)c5ccc(c(Cl)c5)Oc5cc4cc(c5OC4OC(CO)C(O)C(O)C4OC4CC(C)(N)C(O)C(C)O4)Oc4ccc(cc4Cl)C3O)c3ccc(O)c(c3)-c3c(O)cc(O)cc32)cc1 (stereo not drawn) . Fill in?
6.25

Missing value: MIC, S. aureus VISA/HIP5827, entry `CN[C@H](CC(C)C)C(=O)N[C@H]1C(=O)N[C@@H](CC(N)=O)C(=O)N[C@H]2C(=O)N[C@H]3C(=O)N[C@H](C(=O)N[C@H](C(=O)NCC(=O)Nc4cc(OC)cc(OC)c4)c4cc(O)cc(O)c4-c4cc3ccc4O)[C@H](O)c3ccc(c(Cl)c3)Oc3cc2cc(c3O[C@@H]2O[C@H](CO)[C@@H](O)[C@H](O)[C@H]2O[C@H]2C[C@](C)(N)[C@H](O)[C@H](C)O2)Oc2ccc(cc2Cl)[C@H]1O` . Fill in?
0.78

Missing value: MIC, S. aureus VISA/HIP5827, entry `CN[C@H](CC(C)C)C(=O)N[C@H]1C(=O)N[C@@H](CC(N)=O)C(=O)N[C@H]2C(=O)N[C@H]3C(=O)N[C@H](C(=O)N[C@H](C(=O)NCC(=O)Nc4ccc(OC)cc4)c4cc(O)cc(O)c4-c4cc3ccc4O)[C@H](O)c3ccc(c(Cl)c3)Oc3cc2cc(c3O[C@@H]2O[C@H](CO)[C@@H](O)[C@H](O)[C@H]2O[C@H]2C[C@](C)(N)[C@H](O)[C@H](C)O2)Oc2ccc(cc2Cl)[C@H]1O` . Fill in?
0.39

Missing value: MIC, S. aureus VISA/HIP5827, entry CNC(CC(C)C)C(=O)NC1C(=O)NC(CC(N)=O)C(=O)NC2C(=O)NC3C(=O)NC(C(=O)NC(C(=O)NCCCNC(=O)c4cc5ccccc5s4)c4cc(O)cc(O)c4-c4cc3ccc4O)C(O)c3ccc(c(Cl)c3)Oc3cc2cc(c3OC2OC(CO)C(O)C(O)C2OC2CC(C)(N)C(O)C(C)O2)Oc2ccc(cc2Cl)C1O (stereo not drawn) . Fill in?
0.39

Missing value: MIC, S. aureus VISA/HIP5827, entry CNC(CC(C)C)C(=O)NC1C(=O)NC(CC(N)=O)C(=O)NC2C(=O)NC3C(=O)NC(C(=O)NC(C(=O)NCCCNC(=O)c4ccc(C(C)(C)C)cc4)c4cc(O)cc(O)c4-c4cc3ccc4O)C(O)c3ccc(c(Cl)c3)Oc3cc2cc(c3OC2OC(CO)C(O)C(O)C2OC2CC(C)(N)C(O)C(C)O2)Oc2ccc(cc2Cl)C1O (stereo not drawn) . Fill in?
1.56

----------
MICvanc/MICi values for the compounds below.
Tested on: E. faecalis VRE 53
PROTOCOL DETAILS: MIC, broth microdilution, vancomycin-resistant E. faecalis VRE 53 (VanA)
Format: cell-based, Enterococcus faecalis
APPLIED CONDITIONS: E. faecalis VRE 53; ratio of MIC of vancomycin and MIC of analogue
API note: the answer field is a bare number with no unit suffix.

Give its MICvanc/MICi value. Item: `C#Cc1ccc2cc(C(=O)NCCCNC(=O)[C@H]3NC(=O)[C@H]4NC(=O)[C@H](NC(=O)[C@@H]5NC(=O)[C@H](CC(N)=O)NC(=O)[C@H](NC(=O)[C@@H](CC(C)C)NC)[C@H](O)c6ccc(c(Cl)c6)Oc6cc5cc(c6O[C@@H]5O[C@H](CO)[C@@H](O)[C@H](O)[C@H]5O[C@H]5C[C@](C)(N)[C@H](O)[C@H](C)O5)Oc5ccc(cc5Cl)[C@H]4O)c4ccc(O)c(c4)-c4c(O)cc(O)cc43)ccc2c1`
128

Give its MICvanc/MICi value. Item: C#Cc1ccc(NC(=O)CNC(=O)C2NC(=O)C3NC(=O)C(NC(=O)C4NC(=O)C(CC(N)=O)NC(=O)C(NC(=O)C(CC(C)C)NC)C(O)c5ccc(c(Cl)c5)Oc5cc4cc(c5OC4OC(CO)C(O)C(O)C4OC4CC(C)(N)C(O)C(C)O4)Oc4ccc(cc4Cl)C3O)c3ccc(O)c(c3)-c3c(O)cc(O)cc32)cc1 (stereo not drawn)
64

Give its MICvanc/MICi value. Item: `C#CCNC(=O)[C@H]1NC(=O)[C@H]2NC(=O)[C@H](NC(=O)[C@@H]3NC(=O)[C@H](CC(N)=O)NC(=O)[C@H](NC(=O)[C@@H](CC(C)C)NC)[C@H](O)c4ccc(c(Cl)c4)Oc4cc3cc(c4O[C@@H]3O[C@H](CO)[C@@H](O)[C@H](O)[C@H]3O[C@H]3C[C@](C)(N)[C@H](O)[C@H](C)O3)Oc3ccc(cc3Cl)[C@H]2O)c2ccc(O)c(c2)-c2c(O)cc(O)cc21`
8

----------
System: E. faecalis VRE 6
PROTOCOL DETAILS: MIC, broth microdilution, vancomycin-resistant E. faecalis VRE 6 (VanA)
Type: cell-based, Enterococcus faecalis
APPLIED CONDITIONS: Enterococcus faecalis VRE 6 (vancomycin-resistant); read-out: MIC
TEST READOUT: MIC (µM)
Write the value in µM as a bare number.

COMPOUND: CCOc1ccc(-c2ccc(NC(=O)CNC(=O)C3NC(=O)C4NC(=O)C(NC(=O)C5NC(=O)C(CC(N)=O)NC(=O)C(NC(=O)C(CC(C)C)NC)C(O)c6ccc(c(Cl)c6)Oc6cc5cc(c6OC5OC(CO)C(O)C(O)C5OC5CC(C)(N)C(O)C(C)O5)Oc5ccc(cc5Cl)C4O)c4ccc(O)c(c4)-c4c(O)cc(O)cc43)cc2)cc1 (stereo not drawn) [Vanc-86]
TEST READOUT: MIC
MEASUREMENT UNITS: µM
VALUE MEASURED: 1.56
//
COMPOUND: CCCCCc1ccc(C(=O)NCCCNC(=O)C2NC(=O)C3NC(=O)C(NC(=O)C4NC(=O)C(CC(N)=O)NC(=O)C(NC(=O)C(CC(C)C)NC)C(O)c5ccc(c(Cl)c5)Oc5cc4cc(c5OC4OC(CO)C(O)C(O)C4OC4CC(C)(N)C(O)C(C)O4)Oc4ccc(cc4Cl)C3O)c3ccc(O)c(c3)-c3c(O)cc(O)cc32)cc1 (stereo not drawn) [Vanc-49]
TEST READOUT: MIC
MEASUREMENT UNITS: µM
VALUE MEASURED: 6.25

Give its MIC value. Item: CN[C@H](CC(C)C)C(=O)N[C@H]1C(=O)N[C@@H](CC(N)=O)C(=O)N[C@H]2C(=O)N[C@H]3C(=O)N[C@H](C(=O)N[C@H](C(=O)NCC(=O)Nc4ccc5c(c4)Cc4ccccc4-5)c4cc(O)cc(O)c4-c4cc3ccc4O)[C@H](O)c3ccc(c(Cl)c3)Oc3cc2cc(c3O[C@@H]2O[C@H](CO)[C@@H](O)[C@H](O)[C@H]2O[C@H]2C[C@](C)(N)[C@H](O)[C@H](C)O2)Oc2ccc(cc2Cl)[C@H]1O [Vanc-42]
0.78

----------
System: S. aureus VISA/HIP5827
PROTOCOL DETAILS: MIC, broth microdilution, vancomycin-intermediate S. aureus VISA HIP5827
Type: cell-based, Staphylococcus aureus
APPLIED CONDITIONS: Staphylococcus aureus VISA/HIP5827; read-out: MIC
MIC values for the compounds below.
Please answer using the number first and the unit second.

COMPOUND: CNC(CC(C)C)C(=O)NC1C(=O)NC(CC(N)=O)C(=O)NC2C(=O)NC3C(=O)NC(C(=O)NC(C(=O)NCCNC(=O)C4c5ccccc5-c5ccccc54)c4cc(O)cc(O)c4-c4cc3ccc4O)C(O)c3ccc(c(Cl)c3)Oc3cc2cc(c3OC2OC(CO)C(O)C(O)C2OC2CC(C)(N)C(O)C(C)O2)Oc2ccc(cc2Cl)C1O (stereo not drawn)
TARGET DESC: S. aureus VISA/HIP5827
MIC: 1.56 µM

COMPOUND: CNC(CC(C)C)C(=O)NC1C(=O)NC(CC(N)=O)C(=O)NC2C(=O)NC3C(=O)NC(C(=O)NC(C(=O)NCCNC(=O)C=Cc4ccc(NS(=O)(=O)c5ccc(Cl)cc5)cc4)c4cc(O)cc(O)c4-c4cc3ccc4O)C(O)c3ccc(c(Cl)c3)Oc3cc2cc(c3OC2OC(CO)C(O)C(O)C2OC2CC(C)(N)C(O)C(C)O2)Oc2ccc(cc2Cl)C1O (stereo not drawn)
TARGET DESC: S. aureus VISA/HIP5827
MIC: 1.56 µM

# context switch: different compound, same MIC
Missing value: MIC, S. aureus VISA/HIP5827, entry CCCCCCCc1ccc(C(=O)NCCCNC(=O)C2NC(=O)C3NC(=O)C(NC(=O)C4NC(=O)C(CC(N)=O)NC(=O)C(NC(=O)C(CC(C)C)NC)C(O)c5ccc(c(Cl)c5)Oc5cc4cc(c5OC4OC(CO)C(O)C(O)C4OC4CC(C)(N)C(O)C(C)O4)Oc4ccc(cc4Cl)C3O)c3ccc(O)c(c3)-c3c(O)cc(O)cc32)cc1 (stereo not drawn) . Fill in?
0.05 µM
